molecular target: ZMAT2 (UniProt Q96NC0); experiment: log2 fold change, soluble protein after heating vs DMSO (PISA); higher = thermal stabilisation; K562 cells, 10 uM, 30 min; active = over 0.2 and 3.5 SD of the protein, either way, in both replicates (recomputed)
Sequence (Q96NC0 whole entry, looked up): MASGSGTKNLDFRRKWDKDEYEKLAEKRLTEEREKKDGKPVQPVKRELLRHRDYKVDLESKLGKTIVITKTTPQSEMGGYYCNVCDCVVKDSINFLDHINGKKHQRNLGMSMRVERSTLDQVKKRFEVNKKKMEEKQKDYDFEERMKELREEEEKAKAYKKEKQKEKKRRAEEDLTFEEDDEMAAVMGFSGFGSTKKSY
The full data set covers some 7,900 targets. This sample favours those with a hit. About 0.6% of all pairs of compound and target were hits.
Assign a class from recorded log2 fold change; defined classes: lower band = under -0.02, central band = from -0.02 up to 0.04, upper band = 0.04 and over

Below are worked cases with known answers.
SMILES_INPUT	MEASURED_ON	CLASSIFICATION
CN(C)CC(=O)Nc1ccc2[nH]c(=O)c3ccccc3c2c1	ZMAT2 (UniProt Q96NC0)	central band
CCCc1cc(C)[nH]c(=O)c1CNC(=O)c1cc(-c2ccnc(N3CCN(C)CC3)c2)cc2c1cnn2C(C)C	ZMAT2 (UniProt Q96NC0)	lower band

Which log2 fold change category applies to O=C(CCCCCCNC(=O)c1cnc(N(c2ccccc2)c2ccccc2Cl)nc1)NO here?
upper band

Which log2 fold change category applies to CC[C@@H]1C(=O)N(C)c2cnc(Nc3ccc(C(=O)N[C@H]4CC[C@H](N5CCN(CC6CC6)CC5)CC4)cc3OC)nc2N1C(C)C here?
central band

Which log2 fold change category applies to COc1cc(Nc2ncc3c(n2)-c2ccc(Cl)cc2C(c2c(F)cccc2OC)=NC3)ccc1C(=O)O here?
lower band

Which log2 fold change category applies to C#Cc1cccc(Nc2ncnc3cc(OCCOC)c(OCCOC)cc23)c1 here?
central band

Which log2 fold change category applies to C[C@@H]1COCCN1c1cc(C2(S(C)(=O)=O)CC2)nc(-c2cccc3[nH]ccc23)n1 here?
lower band

Which log2 fold change category applies to CC(C)C[C@@H](C=O)NC(=O)[C@H](CC(C)C)NC(=O)[C@H](CC(C)C)NC(=O)OCc1ccccc1 here?
upper band

Which log2 fold change category applies to NC1(Cc2ccc(Cl)cc2)CCN(c2ncnc3[nH]ccc23)CC1 here?
upper band

Which log2 fold change category applies to CCN(CC)Cc1ccc2cc(COC(=O)Nc3ccc(C(=O)NO)cc3)ccc2c1 here?
central band

----------
target: ZNF511 isoform 1 (UniProt Q8NB15); test: log2 fold change, soluble protein after heating vs DMSO (PISA); higher = thermal stabilisation; K562 cells, 10 uM, 30 min; active = over 0.2 and 3.5 SD of the protein, either way, in both replicates (recomputed)
Sequence (Q8NB15 whole entry, looked up, canonical isoform): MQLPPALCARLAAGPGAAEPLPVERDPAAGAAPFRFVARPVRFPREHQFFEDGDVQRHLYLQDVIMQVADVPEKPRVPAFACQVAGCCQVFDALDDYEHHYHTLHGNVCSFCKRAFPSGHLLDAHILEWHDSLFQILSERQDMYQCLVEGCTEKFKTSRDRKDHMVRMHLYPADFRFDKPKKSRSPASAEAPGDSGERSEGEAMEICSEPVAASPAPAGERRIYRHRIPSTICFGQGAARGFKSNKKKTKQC
About 7,900 targets were measured; listed, in parts, are those with a hit and a random draw of the rest. About 0.6% of all pairs of compound and target were hits.
Field 'call' accepts Yes (active), No (inactive)

COMPOUND	CLASSIFICATION
Cc1ccc(Sc2cncc3sc(C(N)=O)cc23)cc1	No
CN1CC[C@H](c2c(O)cc(O)c3c(=O)cc(-c4ccccc4Cl)oc23)[C@H](O)C1 [alvocidib]	No

So what was the verdict on Cc1ncc(-c2ccnc(Nc3ccc(S(C)(=O)=O)cc3)n2)n1C(C)C in this test?
No

So what was the verdict on NC1(Cc2ccc(Cl)cc2)CCN(c2ncnc3[nH]ccc23)CC1 in this test?
No

So what was the verdict on C/C(=N\NC(=O)c1cccc(S(=O)(=O)N2CCOCC2)c1)c1cc(Cl)ccc1O in this test?
Yes

So what was the verdict on O=C1NC(=O)/C(=C\c2ccc3nccnc3c2)S1 in this test?
No

So what was the verdict on CCCS(=O)(=O)Nc1ccc(F)c(C(=O)c2c[nH]c3ncc(Cl)cc23)c1F in this test?
No

So what was the verdict on CC(=O)c1cnc2ccc(-c3cc(Cl)c(O)c(Cl)c3)nc2c1N[C@H]1CC[C@H](CN(C)C)CC1 in this test?
No

So what was the verdict on NCC(=O)Nc1ccc(-n2nc(C(F)(F)F)cc2-c2ccc3c(ccc4ccccc43)c2)cc1 in this test?
No

Origin of the recorded values: the supplement of paper PMC10849652
